assay: Plasma clearance in rat; assay type: ADME, organism-based
measured-quantity: clearance (mL/min/kg)

Sample answers from the record:
compound	value-units	measured-result
CC(O)c1cc(Cl)c(Nc2nc3ccncc3c3c(=O)[nH]ccc23)c(Cl)c1 (configuration not stated)	mL/min/kg	54
O=c1[nH]ccc2c(Nc3c(F)cc(F)cc3Cl)nc3ccncc3c12	mL/min/kg	41
CC(C)[C@@H](Nc1nc2cc[nH]c(=O)c2c2cnccc12)C(F)(F)F	mL/min/kg	68

a. NS(=O)(=O)c1cc(Cl)c(Nc2nc3ccncc3c3c(=O)[nH]ccc23)c(Cl)c1
b. O=c1[nH]ccc2c(Nc3c(Cl)cc(C(O)C(F)F)cc3Cl)nc3ccncc3c12 (configuration not stated)
c. CC(C)(O)c1cc(Cl)c(Nc2nc3ccncc3c3c(=O)[nH]ccc23)c(Cl)c1
d. O=c1[nH]ccc2c(Nc3c(Cl)cc(-c4ccn[nH]4)cc3Cl)nc3ccncc3c12
Q: // sort entries: clearance, high to low In your reply, arrange the labels in the requested order.
Result: a, c, b, d
